System: Fibroblast
measurement.description: Incucyte cell viability with human fibroblast; note: unitless GR value; below 1 slowed growth and below 0 cell loss
Format: toxicity, cell-based
assay.conditions: 12 h, 10 µM, compound concentration 10 uM, replicate number 2
Please note: condition met applies when Growth Rate is 0.7 or greater, and condition not met applies otherwise.

Here's what some known entries look like.
{"compound": "C[C@H](C[C@H](N)C(=O)O)C(=O)O [2S,4R-4-METHYLGLUTAMATE]", "class.name": "condition not met"}
{"compound": "CC1CN(CC(=O)N2CC(C)(C)c3nc(CO)c(Cc4ccc(F)cc4)cc32)C(CN2CCOCC2C)CN1 (stereo not drawn)", "class.name": "condition met"}
{"compound": "CC[C@H](Nc1c(C#N)c(-c2ccc(-c3cccc(C)c3F)cc2)nc2cnccc12)C(=O)O", "class.name": "condition met"}

Can O=C(Nc1cc(-c2cn[nH]c2)ccc1N1CCOCC1)c1ccc(-c2ccc3ncccc3c2)o1 be said to have Growth Rate at or above 0.7? condition not met
